target: Growth/differentiation factor 8 (Homo sapiens) (UniProt O14793); assay: Inhibition of myostatin (unknown origin) expressed in HEK293 cells at 10 uM incubated for 4 hrs by dual luciferase reporter gene assay; type: cell-based
Sequence (O14793 267-375 limits assumed): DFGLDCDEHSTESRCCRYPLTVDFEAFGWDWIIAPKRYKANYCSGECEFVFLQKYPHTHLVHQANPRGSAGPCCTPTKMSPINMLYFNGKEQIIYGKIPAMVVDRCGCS
Calls of active or inactive are those of the source. The rule behind the calls is not given here. Residues, ends and D or L forms follow the SMILES beside them.
outcome_measure: inhibition

CSCC[C@H](NC(=O)[C@H](Cc1c[nH]c2ccccc12)NC(=O)[C@H](CCCCN)NC(=O)[C@H](Cc1ccccc1)NC(=O)[C@H](CC(C)C)NC(=O)[C@@H](NC(=O)[C@H](CC(N)=O)NC(=O)[C@H](CC(=O)O)NC(=O)[C@H](CC(N)=O)NC(=O)[C@@H](N)C(C)C)[C@@H](C)O)C(=O)N[C@@H](C)C(=O)N[C@@H](Cc1ccccc1)C(=O)N[C@@H](CC(N)=O)C(=O)NCC(N)=O (H-VNDNTLFKWMAFNG-NH2): inactive
CC[C@H](C)[C@H](NC(=O)[C@H](CCSC)NC(=O)[C@H](C)NC(=O)[C@H](CCCCN)NC(=O)[C@H](Cc1ccccc1)NC(=O)[C@H](CC(C)C)NC(=O)[C@@H](NC(=O)[C@H](CC(N)=O)NC(=O)[C@H](CC(=O)O)NC(=O)[C@H](CC(N)=O)NC(=O)[C@@H](N)C(C)C)[C@@H](C)O)C(=O)N[C@@H](Cc1ccccc1)C(=O)N[C@@H](CC(N)=O)C(=O)NCC(N)=O (H-VNDNTLFKAMIFNG-NH2): inactive
CC[C@H](C)[C@H](NC(=O)[C@H](CCSC)NC(=O)[C@H](Cc1c[nH]c2ccccc12)NC(=O)[C@H](CCCCN)NC(=O)[C@H](Cc1ccccc1)NC(=O)[C@H](CC(C)C)NC(=O)[C@@H](NC(=O)[C@H](CC(N)=O)NC(=O)[C@H](CC(=O)O)NC(=O)[C@H](CC(N)=O)NC(=O)[C@H](C)N)[C@@H](C)O)C(=O)N[C@@H](Cc1ccccc1)C(=O)N[C@@H](CC(N)=O)C(=O)NCC(N)=O (H-ANDNTLFKWMIFNG-NH2): inactive
